Recorded values, source ChEMBL document CHEMBL4342528.

Measurement Label: IC50 (nM)
Entry rule: numbers only, all in nM.

Task: Lookup: IC50 / Protein arginine N-methyltransferase 8 (Homo sapiens) / CCC(=O)Nc1cccc(-c2c[nH]cc2CN(C)CCN)c1
Output: 130

Task: Lookup: IC50 / Protein arginine N-methyltransferase 8 (Homo sapiens) / C=CC(=O)Nc1cccc(-c2c[nH]cc2CN(C)CCN)c1
Output: 110

Task: Lookup: IC50 / Protein arginine N-methyltransferase 8 (Homo sapiens) / C=CC(=O)Nc1cccc(-c2c[nH]cc2CN(C)CCO)c1
Output: 23000

----------
Protocol: Inhibition of type 1 PRMT (unknown origin)
Parameters: species or system Homo sapiens
Measurement Label: IC50

Task: Please look up its IC50: CC(C)Oc1ccc(-c2c[nH]cc2CN(C)CCN)cc1
Output: 4 to 119 nM
